- TESTED_SYSTEM: CDK5/GST-p25 (Homo sapiens, UniProt Q00535)
- Construct: The final construct, encoding for full-length human CDK5; made in house; host or cells: Sf21 insect cells (baculovirus co-infection)
- Sequence (Q00535 whole entry): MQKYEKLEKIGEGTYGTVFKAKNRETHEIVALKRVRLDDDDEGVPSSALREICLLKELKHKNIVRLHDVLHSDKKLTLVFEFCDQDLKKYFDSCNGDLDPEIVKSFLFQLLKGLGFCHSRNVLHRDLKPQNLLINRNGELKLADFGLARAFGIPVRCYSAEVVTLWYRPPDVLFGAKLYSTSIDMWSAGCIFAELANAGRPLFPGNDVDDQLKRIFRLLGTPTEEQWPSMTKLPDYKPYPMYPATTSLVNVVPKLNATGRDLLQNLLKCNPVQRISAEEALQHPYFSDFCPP
- Sequence (Q15078 108-307 partner limits assumed): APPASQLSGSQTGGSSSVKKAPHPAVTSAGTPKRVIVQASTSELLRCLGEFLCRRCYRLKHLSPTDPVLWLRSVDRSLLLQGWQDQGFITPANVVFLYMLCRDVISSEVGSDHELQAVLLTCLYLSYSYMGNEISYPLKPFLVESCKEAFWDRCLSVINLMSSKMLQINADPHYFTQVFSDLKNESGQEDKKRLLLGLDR
- ASSAY_TEXT: Inhibition of CDK5/GST-p25 kinase activity (ELISA with time-resolved fluorescence readout)
- Type: biochemical
- CONDITION_NOTES: numeric bounds
pIC50: −log10 of the molar value.
RECORDED_ENDPOINT: pIC50

Here are 2 compounds together with their reported answers.
INSERT INTO results (compound, recorded_result) VALUES
  ('CNCCCNc1nc(C2C(=O)Nc3ccc(Br)cc32)c2cn(C3CCCC3)nc2n1.Cl (stereo not drawn) [Example 379, hydrochloride salt]', '< 5.52'),
  ('N#Cc1ccc2c(c1)C(c1nc(NCCN3CCCC3)nc3nn(C4CCCC4)cc13)C(=O)N2 (stereo not drawn)', '< 5.52');

Then this compound:
### Prompt Determine from records and report pIC50 for CCCn1cc2c(C3C(=O)Nc4ccc(S(=O)(=O)N(C)C)cc43)nc(NCCN(C)C)nc2n1 (stereo not drawn)
### Response < 5.52

====

- TESTED_SYSTEM: CDK5/GST-p25 (Homo sapiens, UniProt Q00535)
- Construct: The final construct, encoding for full-length human CDK5; made in house; host or cells: Sf21 insect cells (baculovirus co-infection)
- ASSAY_TEXT: Inhibition of CDK5/GST-p25 kinase activity (ELISA with time-resolved fluorescence readout)
- Format: biochemical
- CONDITION_NOTES: numeric bounds
RECORDED_ENDPOINT: IC50

Some solved entries appear below for comparison.
INSERT INTO assay_data (compound, recorded_endpoint, recorded_result) VALUES
  ('O=C1Nc2ccc(Br)cc2C1c1ncnc2c1cnn2C1CCCC1 (centres unmarked) [Example 54]', 'IC50', '> 3 µM'),
  ('O=C1Nc2ccc(Br)cc2C1c1nc(NCCN2CCOCC2)nc2c1CCC2 (centres unmarked) [Example 332]', 'IC50', '> 3 µM'),
  ('O=C1Nc2ccc(C(F)(F)F)cc2C1c1nc(NCCCN2CCOCC2)nc2nn(C3CCCC3)cc12 (centres unmarked) [Example 162]', 'IC50', '> 1 µM'),
  ('O=C1Nc2ccc(C(F)(F)F)cc2C1c1nc(NCc2ccncc2)nc2nn(C3CCCC3)cc12 (centres unmarked) [Example 246]', 'IC50', '> 3 µM'),
  ('CC(=O)NCCNc1nc(C2C(=O)Nc3ccccc32)c2cn(C3CCCC3)nc2n1 (centres unmarked) [Example 158]', 'IC50', '> 3 µM'),
  ('O=C1Nc2ccccc2C1c1nc(NCCCN2CCOCC2)nc2nn(C3CCCC3)cc12 (centres unmarked) [Example 157]', 'IC50', '> 3 µM');

### Prompt Return the recorded IC50 value; entry: CN(C)CCCNc1nc(C2C(=O)Nc3ccc(Br)cc32)c2cn(C3CCCC3)nc2n1 (centres unmarked) [Example 371]
### Response > 3 µM

### Prompt # return recorded IC50 for input O=C1Nc2ccc(F)cc2C1c1nc(NCc2ccncc2)nc2c1CCC2 (centres unmarked) [Example 320]
### Response > 3 µM

====

- TESTED_SYSTEM: His6-GSK-3β (Homo sapiens)
- Construct: made in house; host or cells: Sf21 insect cells (baculovirus)
- Sequence (P49841 2-419): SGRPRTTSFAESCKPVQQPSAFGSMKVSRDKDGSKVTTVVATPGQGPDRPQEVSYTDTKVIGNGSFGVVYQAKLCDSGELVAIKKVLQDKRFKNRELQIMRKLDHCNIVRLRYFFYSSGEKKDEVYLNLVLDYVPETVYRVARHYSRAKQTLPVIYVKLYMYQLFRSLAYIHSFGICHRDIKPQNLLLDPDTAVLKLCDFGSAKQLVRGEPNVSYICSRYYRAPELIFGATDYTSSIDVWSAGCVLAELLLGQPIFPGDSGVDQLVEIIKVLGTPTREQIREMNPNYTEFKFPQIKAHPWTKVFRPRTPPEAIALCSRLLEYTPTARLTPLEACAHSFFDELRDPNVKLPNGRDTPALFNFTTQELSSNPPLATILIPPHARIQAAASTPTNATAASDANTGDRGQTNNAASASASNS
- ASSAY_TEXT: Inhibition of His6-GSK-3β kinase activity (ELISA-based format, time-resolved fluorescence readout)
- Type: biochemical
- CONDITION_NOTES: class symbols; read-out: GSK3β IC50
RECORDED_ENDPOINT: IC50

INSERT INTO assay_data (compound, recorded_result) VALUES
  ('Cn1cc2c(C3C(=O)Nc4ccc(Br)cc43)nc(NCCN)nc2n1 (stereo not shown) [Example 303]', '0.3 to 3 µM'),
  ('CCCCCn1cc2c(C3C(=O)Nc4ccc(C#N)cc43)nc(NC(C)C)nc2n1 (stereo not shown) [Example 295]', '< 0.3 µM'),
  ('CCCn1cc2c(C3C(=O)Nc4ccc(S(=O)(=O)N(C)C)cc43)nc(NCCN(C)C)nc2n1 (stereo not shown) [Example 205]', '> 10 µM');

### Prompt Item N#Cc1ccc2c(c1)C(c1ncnc3nn(C4CCCCC4)cc13)C(=O)N2 (stereo not shown) [Example 45] : provide IC50
### Response < 0.3 µM

### Prompt Provide one value: measured IC50 of CCCn1ncc2c(C3C(=O)Nc4ccc(C#N)cc43)ncnc21 (stereo not shown) [Example 93]
### Response > 10 µM

### Prompt Provide IC50 value for the following compound: O=C1Nc2ccc(Cl)cc2C1c1nc(N2CCOCC2)nc2nn(C3CCCC3)cc12 (stereo not shown) [Example 143]
### Response < 0.3 µM

### Prompt Identify the reported IC50 for the following entry. Cn1ncc2c(C3C(=O)Nc4ccc(Cl)cc43)ncnc21 (stereo not shown) [Example 86]
### Response > 10 µM

====

Catalogue of melting point values
Structures can show the parent of a compound that is named as a salt.

Solved cases below.
INSERT INTO measurements (compound, recorded_endpoint, recorded_result) VALUES
  ('COCCN(CCOC)c1nc(C2C(=O)Nc3ccc(C#N)cc32)c2cn(C3CCCC3)nc2n1 (centres unmarked)', 'melting point', '248.5 to 249 °C'),
  ('CCCCCn1cc2c(C3C(=O)Nc4ccc(C(F)(F)F)cc43)nc(NCCCN3CCOCC3)nc2n1 (centres unmarked)', 'melting point', '230 °C (dec.)'),
  ('CCCn1cc2c(C3C(=O)Nc4ccc(Br)cc43)nc(NC[C@H](C)O)nc2n1 (some centres unmarked)', 'melting point', '322 to 326 °C'),
  ('CCCn1cc2c(C3C(=O)Nc4ccc(Br)cc43)nc(NCCN)nc2n1 (centres unmarked)', 'melting point', '272 to 276 °C');

### Prompt // Input: O=C1Nc2ccc(Cl)cc2C1c1nc(NCCCN2CCOCC2)nc2nn(C3CCCC3)cc12 (centres unmarked) . Output its melting point only.
### Response 250 to 254.5 °C

### Prompt Please report melting point for the following compound: CN(C)CCNc1nc(C2C(=O)Nc3ccc(Br)cc32)c2cn(C3CCCC3)nc2n1 (centres unmarked) (as salt: TFA)
### Response 190 to 192 °C

====

- TESTED_SYSTEM: CDK5/GST-p25 (Homo sapiens, UniProt Q00535)
- Construct: The final construct, encoding for full-length human CDK5; made in house; host or cells: Sf21 insect cells (baculovirus co-infection)
- ASSAY_TEXT: Inhibition of CDK5/GST-p25 kinase activity (ELISA with time-resolved fluorescence readout)
- Format: biochemical
- CONDITION_NOTES: class symbols
RECORDED_ENDPOINT: IC50

INSERT INTO assay_data (molecule, tested_system, recorded_result) VALUES
  ('CCCCN1CCC(CNc2nc(C3C(=O)Nc4ccc(Cl)cc43)c3cn(C4CCCC4)nc3n2)CC1 (stereo not shown)', 'CDK5/GST-p25 (Homo sapiens, UniProt Q00535)', '> 10 µM'),
  ('N#Cc1ccc2c(c1)C(c1nc(NCCc3ccncc3)nc3c1CCC3)C(=O)N2 (stereo not shown)', 'CDK5/GST-p25 (Homo sapiens, UniProt Q00535)', '> 10 µM'),
  ('O=C1Nc2ccccc2C1c1nc(NCc2cccnc2)nc2nn(C3CCCC3)cc12 (stereo not shown)', 'CDK5/GST-p25 (Homo sapiens, UniProt Q00535)', '< 0.3 µM');

### Prompt Item COCCn1cc2c(C3C(=O)Nc4ccc(Br)cc43)nc(NCCC3CCCNC3)nc2n1 (stereo not shown) : provide IC50
### Response < 0.3 µM

====

- TESTED_SYSTEM: CDK5/GST-p25 (Homo sapiens)
- Construct: The final construct, encoding for full-length human CDK5; made in house; host or cells: Sf21 insect cells (baculovirus co-infection)
- ASSAY_TEXT: Inhibition of CDK5/GST-p25 kinase activity (ELISA with time-resolved fluorescence readout)
- Assay type: biochemical
- CONDITION_NOTES: class symbols
- Description: Two recombinant baculoviral constructs were created, one encoding for human CDK5 and the other encoding for human p25 with an amino-terminal glutathione-S-transferase (GST) tag. […] Compounds were tested for their ability to inhibit the kinase activity of recombinant baculoviral CDK5/GST-p25 using an enzyme-linked immunosorbent assay (ELISA) with time-resolved fluorescence (TRF) readout. […] Inhibition data were analyzed using ActivityBase and IC50 curves were generated using XLFit 3.0.5.
Counter-ions that a name gives are not always drawn.
RECORDED_ENDPOINT: IC50

Record excerpt, results attached:
INSERT INTO assay_data (compound, recorded_endpoint, recorded_result) VALUES
  ('CCOCCn1cc2c(C3C(=O)Nc4ccc(Br)cc43)nc(Cl)nc2n1 (stereo not drawn)', 'IC50', '> 10 µM'),
  ('CCCn1ncc2c(C3C(=O)Nc4ccc(C#N)cc43)ncnc21 (stereo not drawn)', 'IC50', '> 10 µM'),
  ('CNCCNc1nc(C2C(=O)Nc3ccc(Br)cc32)c2cn(C)nc2n1 (stereo not drawn) [Example 360, hydrochloride salt]', 'IC50', '0.3 to 3 µM');

### Prompt Indicate its recorded IC50; the compound in question is CCN(CC)CCN(C)c1nc(C2C(=O)Nc3ccc(C#N)cc32)c2cn(C3CCCC3)nc2n1 (stereo not drawn)
### Response > 10 µM

### Prompt Return value of IC50 for input CN(C)CCNc1nc(C2C(=O)Nc3ccc(Br)cc32)c2cn(C)nc2n1 (stereo not drawn) , no commentary.
### Response 0.3 to 3 µM

### Prompt Using known records, supply IC50 for CCOCCn1cc2c(C3C(=O)Nc4ccc(Br)cc43)nc(NC[C@H](C)O)nc2n1 (stereo partly drawn)
### Response < 0.3 µM
